System: fructosamine oxidase
PROTOCOL: fructosamine oxidase inhibition assay in human sera (ferricytochrome c, g-BSA substrate)
Assay type: biochemical
MEASUREMENT PARAMETERS: 1.0 μM inhibitor
Excerpt: The effectiveness of the inhibitor was expressed not by an equilibrium constant but by a velocity constant (K) which determined the fraction of the enzyme inhibited in a given period of time by a certain concentration of inhibitor.
MEASURED ENDPOINT: K (velocity/rate constant) (min⁻¹)
One number for each entry, in min⁻¹.

Reference set, count: 4
>  <COMPOUND>
C[C@H](CS)C(=O)N1CCC[C@H]1C(=O)O [captopril]

>  <MEASURED ENDPOINT>
K (velocity/rate constant)

>  <MEASURED>
0.0259

$$$$
>  <COMPOUND>
N[C@@H](Cc1c[nH]cn1)C(=O)O [histidine]

>  <MEASURED ENDPOINT>
K (velocity/rate constant)

>  <MEASURED>
0.0554

$$$$
>  <COMPOUND>
CC(=O)N[C@H](C(=O)O)C(C)(C)S [acetylpenicillamine]

>  <MEASURED ENDPOINT>
K (velocity/rate constant)

>  <MEASURED>
0.0811

$$$$
>  <COMPOUND>
CCOC(=O)[C@H](CCc1ccccc1)N[C@@H](C)C(=O)N1CCC[C@H]1C(=O)O [enalapril]

>  <MEASURED ENDPOINT>
K (velocity/rate constant)

>  <MEASURED>
0.0326

$$$$

Now examine the next entry.
Prompt: K (velocity/rate constant) for CC(=O)N[C@@H](CS)C(=O)O [acetylcysteine] ?
Completion: 0.1677
